# System: LXRa homodimer (NR concentration 270 nM)
# test: PBM binding z-score (relative to random genomic background probes); higher = stronger binding; sequences stand for … in GC…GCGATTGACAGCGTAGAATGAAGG
endpoint: PBM binding z-score

1. ATATGTAGGTTATTGGGTCATTCAGTTTGCGCAT 2.1
2. TTACCAAGGTGTGCTGAGGTCGTTGATCCAACTC -0.284
3. CCTTACGGATCACTCCAGGTTATAGCATCGGAGT 1.36
4. CCAACTGGGCCAAAGGTCATTGATTCCAATGCTC 3.93
5. CCTAGTTGGTCAGGAGGTCTCACACCGGATATGA 0.125
6. TGTCAAAGTTCAAAGGTAACTTAAGTATCCACAC 4.91
7. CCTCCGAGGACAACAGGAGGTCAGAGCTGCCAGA 2.21
8. TAACCAAGGTGAAAGGTCGTTGATGCACGCCTTG 0.422
9. CCTATTAGTTGACCATAAGCGCAACCGAAGCTCG 0.899
10. CGTCCAAGGTCAGCAGGTCAGTCAAAGCGACGTG 0.724
11. TCATATAGGTAAAACAGGTGAAAGTCGGCATCTA 0.257
12. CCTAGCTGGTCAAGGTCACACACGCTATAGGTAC 1.74
13. GCGACTGGGGCAAAGCAGGTTACCAGAAGGTTGG -0.462
14. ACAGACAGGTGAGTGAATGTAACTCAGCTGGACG -0.418
15. TTGCCTAGGTCATGCGGGCCAGTATAGTGTCGGC 0.0559
16. CGAACTAGGTCATCCAGGACAGTTAATACATTGA 0.501
17. TCATATCGGTAATACAGGTGAAAGTCGGCATCTA 0.448
18. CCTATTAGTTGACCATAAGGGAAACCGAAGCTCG 0.818
19. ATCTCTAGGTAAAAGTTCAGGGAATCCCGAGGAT 1.26
20. TCTATTAGTTGATGAGGGCAACCGAAACAGCGGA 0.18
21. GGAACGAGGGTAAGTTGATAGCAGAGTTTGATGG -0.232
22. AATACAGGGTCACTAGACCAGAGTAGGTACGAAT 0.962
23. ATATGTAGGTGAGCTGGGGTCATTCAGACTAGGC 0.762
24. CGAACTTGGTCATTGACAGGACAGTGAATAGTAA -0.179
25. GAAACGAGGGCAAAGTTGATAGCATCTGTCGACG -0.429
26. ACTATTAGTTGACTTAGAGCAACCGATACGACGC -0.0686

----------
# System: LXRb homodimer (NR concentration 270 nM)
# test: PBM binding z-score (relative to random genomic background probes); higher = stronger binding; sequences stand for … in GC…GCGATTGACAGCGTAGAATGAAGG
endpoint: PBM binding z-score

1) ACTCGGAGGACAAAGGTCAGAGGTACGCCAGTGA -0.137
2) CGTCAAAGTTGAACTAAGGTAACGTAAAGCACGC 0.134
3) TCTTGTAGGTCAGCAGGTTAAGAAAGCTGGCCAA 0.418
4) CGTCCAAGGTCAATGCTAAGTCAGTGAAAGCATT 0.637
5) ATCTCCAGGTAAAGATAGTTCAGTGAATGCAAAT 0.602
6) TGAATGAGGTTAGAGATCAGGGAACGTGGCGTCG 0.27
